System: S. typhimurium/E. coli reverse mutation, colony counts
Assay: Bacterial reverse mutation test (aka Ames test) summary data;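 also: His-minus Salmonella and trp-minus E. coli WP2 uvrA pKM101 with or without liver S9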
Excerpt: The Ames test uses bacteria cultures to determine whether a substance causes mutations. Because there is a significant overlap between substances that are mutagens and those that are carcinogens, a quick and inexpensive mutagenicity test is useful as an initial screening for possible carcinogens. The Ames test relies on specific strains of S. typhimurium, namely: TA97, TA98, TA100, TA102, TA104, TA1535, TA1537, and TA1538. […]
Results filed as inconclusive are left out. Activity calls are given as the source filed them. No rule for the calls is given here.
Give one outcome, nothing more. List: Yes (active), No (inactive)

Cc1ccc(C)c([N+](=O)[O-])c1; Yes
CCCCN1CCCCC1C(=O)Nc1c(C)cccc1C (centres undefined); No
O=C1c2ccccc2-c2ccc3c4ccc5c6c(ccc(c7ccc1c2c73)c64)C(=O)c1ccccc1-5; Yes
CCCCCN; No
C=C(C)C(=O)OCC(C)C; No
C=CC(=O)O; No
FC(F)(F)c1ccc(Cl)cc1; No
COc1ccc(OC)c(N=Nc2c(O)ccc3ccccc23)c1; Yes
N#CCCC#N; No
O=c1[nH]c(=O)[nH]c(=O)[nH]1; No

Name the outcome recorded for "CN(C)c1ccc2nc3ccc(=[N+](C)C)cc-3sc2c1" in the assay.
Yes

Same read-out for "Nc1ccc(Nc2ccccc2)cc1" ?
No

Same read-out for C[S+](CC[C@H](N)C(=O)[O-])C[C@H]1O[C@@H](n2cnc3c(N)ncnc32)[C@H](O)[C@@H]1O (some centres undefined) ?
No

Same read-out for "c1ccc2[nH]cnc2c1" ?
No

====

System: S. typhimurium/E. coli reverse mutation, colony counts
Experiment: Bacterial reverse mutation test (aka Ames test) summary data;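 also: His-minus Salmonella and trp-minus E. coli WP2 uvrA pKM101 with or without liver S9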
Source text: The Ames test uses bacteria cultures to determine whether a substance causes mutations. Because there is a significant overlap between substances that are mutagens and those that are carcinogens, a quick and inexpensive mutagenicity test is useful as an initial screening for possible carcinogens. The Ames test relies on specific strains of S. typhimurium, namely: TA97, TA98, TA100, TA102, TA104, TA1535, TA1537, and TA1538. […]
Inconclusive results are not listed. Activity calls are given as the source filed them. How the calls were made is not given here.
measurement name: outcome

Please review the following examples before continuing.
CS(=O)(=O)c1ccc(C(=O)C2C(=O)CCCC2=O)c([N+](=O)[O-])c1; active; positive
CCCC(CCC)C(=O)O; inactive; negative
C=C(C)C; inactive; negative
CCCl; active; positive
CN(C)N=Nc1nc[nH]c1C(N)=O; active; positive

What value of outcome has been recorded for this entry: "CS(=O)(=O)c1ccc(O)c(N)c1"
inactive; negative

Same read-out for "c1ccc2c(c1)oc1ccccc12" ?
inactive; negative

====

test system: S. typhimurium/E. coli reverse mutation, colony counts; assay: Bacterial reverse mutation test (aka Ames test) summary data;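 also: His-minus Salmonella and trp-minus E. coli WP2 uvrA pKM101 with or without liver S9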
Records with an inconclusive call do not appear. Active and inactive are the calls of the source. No rule for the calls is given here.
Give one outcome, nothing more. List: active, inactive

O=C=S; active
Cc1ccccc1C(N)=O; inactive
O=C1C=C(O)c2ccccc2C1=O; active
Clc1cccc(Cl)c1; inactive
Cc1cc(C)c(N=Nc2c(O)c(S(=O)(=O)O)cc3cc(S(=O)(=O)O)ccc23)cc1C; inactive
Cc1ccc(NC(N)=O)cc1; inactive

Name the outcome recorded for "CCNc1ccccc1" in the assay.
inactive

Same read-out for "c1cc2c3c(c1)ccc1cccc(c13)C2" ?
active
